Origin of measurements: PubChem BioAssay (Tox21)

# experiment-summary: qHTS assay to test for compound auto fluorescence at 460 nm (blue) in HepG2 cell free culture (AID 720685); also: % is scaled to controls: 0 for no effect and ±100 for the full control effect
# stated-conditions: Cell-free culture medium, blue autofluorescence 405/460 nm; series mostly up to 91.3 µM
# Description: U.S. Tox21 Program National Center for Advancing Translational Sciences [NCATS] NIH Chemical Genomics Center [NCGC] U.S. Environmental Protection Agency [EPA] National Institutes of Environmental Health Sciences [NIEHS] National Toxicology Program [NTP] U.S. Food and Drug Administration [FDA] Tox21 Assay Overview: Compound auto fluorescence often interferes with screening of the compound library against various biological targets and signaling pathways. […] This assay includes the blue fluorescence data. […]
Calls of active or inactive are those of the source. Calls follow the shape of the dose curve; as a rule, active = well fitted curve in the direction sought with a large enough effect in the repeat runs; inconclusive = weak or mixed curves; inactive = flat fitted curve, though single readings scatter.
measurement-label: fluorescence, % of fluorescent control

Study these solved cases before continuing.
{"compound": "CCCCCCCCCCl", "data-value": "inactive"}
{"compound": "COc1cc(NS(=O)(=O)c2ccc(N)cc2)nc(OC)n1", "data-value": "-0.0655% [at 18.6 µM] (inactive)"}
{"compound": "CCCCCCCCCC(C)=O", "data-value": "inactive"}
{"compound": "CCCCCCCCSCC", "data-value": "inactive"}
{"compound": "CC(=O)c1sc(C)nc1C", "data-value": "inactive"}

Give fluorescence, % of fluorescent control for all compounds that follow.
1. CC/C=C\CC1=C(C)CCC1=O
2. O=C1c2ccccc2C(=O)c2cc(S(=O)(=O)O)ccc21
3. CCCCCCCCC(=O)Cl
4. COc1ccc(S(=O)(=O)N2c3ccc(Cl)cc3[C@@](O)(c3ccccc3Cl)[C@H]2C(=O)N2CCC[C@@H]2C(N)=O)cc1OC
5. O=C(O)Cc1cn(-c2ccccc2)nc1-c1ccc(Cl)cc1
6. OCCN(CCO)c1cccc(Cl)c1

stdout:
["inactive", "inactive", "inactive", "inactive", "inactive", "inactive"]

Okay, here is my list. What is fluorescence, % of fluorescent control for each of these?
1. Cc1cc(Cl)c(C)cc1Cl
2. N[C@@H](COP(=O)(O)O)C(=O)O
3. N#Cc1ccc(C(=O)O)cc1
4. CCOC(=O)c1ccc(OC(=O)CCCCCN=C(N)N)cc1
5. Cc1c(I)c(=O)n(-c2ccccc2)n1C
6. COc1ccc2c(c1)C(=O)N(CCc1ccc(S(=O)(=O)NC(=O)NC3CCCCC3)cc1)C(=O)C2(C)C
7. C[C@H](N)[C@H](O)c1cccc(O)c1

stdout:
1. inactive
2. inactive
3. inactive
4. 0.0222% [at 18.6 µM] (inactive)
5. inactive
6. -0.0823% [at 18.6 µM] (inactive)
7. 1.92% [at 18.6 µM] (inactive)

Could you report fluorescence, % of fluorescent control for every entry in the following list?
1. C=C(C)C(=O)OCc1ccccc1
2. NNc1nnc(NN)c2ccccc12
3. OCCC(F)(F)C(F)(F)C(F)(F)C(F)(F)C(F)(F)C(F)(F)C(F)(F)C(F)(F)F
4. N[C@@H](CCC(=O)Nc1ccc([N+](=O)[O-])cc1)C(=O)O
5. CCC(C)NC(N)=O (stereo unspecified)
6. CNC(=O)[C@H]1O[C@@H](n2cnc3c(NCc4cc(Cl)ccc4OCc4cc(C)no4)ncnc32)[C@H](O)[C@@H]1N
7. CO[C@@H]1[C@@H](OC(N)=O)[C@@H](O)[C@H](Oc2ccc3c(O)c(NC(=O)c4ccc(O)c(CC=C(C)C)c4)c(=O)oc3c2C)OC1(C)C
8. COc1ccc(Br)c(C)c1

stdout:
1: inactive; 2: inactive; 3: inactive; 4: inactive; 5: inactive; 6: inactive; 7: 0.0828% [at 18.6 µM] (inactive); 8: inactive
